Test: chemical genetic growth profiling, strain panel (AID 1159580);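 also: tested at 20 µM; growth read once vehicle control cultures reached saturation at 30 °C; 1 = growth at the plate median or of vehicle wells; lower values mean less growth of the strain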
Details: S. cerevisiae deletion strains, growth OD, locus YKL048C, strain ELM1, hits give low values
Out of some 5,500 compounds screened, about 2,000 (36%) were called active. Another 18% or so got no clear call; they are omitted. The list shows a part of the results.
Friendly reminder: normalized growth below 0.9 is Yes, at or above is No.

Solved cases below.
>  <compound>
N#Cc1c(Cl)c(Cl)c(Cl)c(Cl)c1C#N

>  <assigned class>
Yes

$$$$
>  <compound>
Cc1cc(SCc2[nH]nc3oc(=O)cc(C)c23)c(Cl)cc1Cl

>  <assigned class>
No

$$$$
>  <compound>
C/C(=N/NC(N)=S)c1ccc(Oc2c(Cl)cncc2Cl)cc1

>  <assigned class>
No

$$$$
>  <compound>
COc1ccc(NC(=O)O/N=C(/N)c2ccc(Oc3c(Cl)cncc3Cl)cc2)cc1

>  <assigned class>
No

$$$$

State whether 0.9 exceeds normalized growth recorded for `O=C(Nc1cc(Cl)cc(Cl)c1)Nc1cc(-c2ccco2)[nH]n1` .
Yes

For Cc1ccccc1C(=O)N1CCc2c([nH]c3ccccc23)C1C(F)(F)F (stereo unspecified) then?
No

Try this compound next: `NCCCN=c1ccc2c3c1c(O)c1c(O)ccc(=O)c1c3[nH]n2CCNCCO`
No

What do you have for `O=C(NCc1ccco1)c1ccc(Oc2cc(Cl)cc(Cl)c2)o1` ?
No

And then `NC(N)=Nc1nc(-c2cc(Cl)sc2Cl)cs1` , what is it?
No

----------
Assay: chemical genetic growth profiling, strain panel (AID 1159580)
Settings: S. cerevisiae deletion strains, growth OD, locus YBR229C, strain ROT2, hits give low values
Screen size: about 5,500 compounds; about 2,000 (36%) were called active. Roughly 18% stayed inconclusive and do not appear here. The list shows a part of the results.
property label: normalized growth
// return just the number, without any unit appended

Please review the entries below; each comes with its answer.
>  <molecule>
CC1(O)/C=C/C=C(\CO)C2CC(C)(C)C2(O)CC1 (stereo not drawn)

>  <recorded value>
1.01

$$$$
>  <molecule>
O=C1C[C@@H](c2ccccc2)Oc2cc(O)cc(O)c21

>  <recorded value>
0.927

$$$$
>  <molecule>
O=[N+]([O-])c1cc(C(F)(F)F)ccc1N1CCN(CCO)CC1

>  <recorded value>
0.987

$$$$
>  <molecule>
C1CCc2nnnn2CC1

>  <recorded value>
1.01

$$$$
>  <molecule>
COc1ccc([C@@H]2CC(=O)c3c(O)cc(O)cc3O2)cc1O

>  <recorded value>
1

$$$$

Fill blank: measured normalized growth of the molecule COc1ccc(C2CC(=O)c3ccc(OC)cc3O2)cc1 (stereo not drawn) is ____.
0.963

Try this molecule next: `CNc1ccccc1C(=O)N1CCc2c([nH]c3ccccc23)C1=O`
1.01

Now give it for `O=C1C[C@@H](c2ccc(O)cc2)Oc2cc(O)cc(O)c21` too.
1.02

What do you get for O=C(O)CSCC(=O)N1CCc2c([nH]c3ccccc23)C1C(F)(F)F (stereo not drawn) ?
1.01

What about this molecule? O=C(O)COCC(=O)N1CCc2c([nH]c3ccccc23)C1C(F)(F)F (stereo not drawn)
0.998

Same thing, different molecule: O=C1CC(c2ccc(O)cc2)Oc2ccccc21 (stereo not drawn)
0.918

Then this molecule: COC(=O)[C@@H]1C(O)CC[C@H]2CN3CCc4c([nH]c5ccccc45)[C@@H]3C[C@@H]21 (stereo partly drawn)
0.99

Likewise for COC(=O)C1[C@H]2C[C@H]3c4[nH]c5ccccc5c4CCN3C[C@@H]2CC[C@@H]1O (stereo partly drawn) ?
1

Repeat with O=C1CC(c2ccccc2)Oc2ccccc21 (stereo not drawn)
0.985

Now consider O=C(CSc1ccc(C(F)(F)F)cn1)N1CCc2c([nH]c3ccccc23)C1C(F)(F)F (stereo not drawn) and answer again.
0.995

Lookup O=C(O)C1C(O)CCC2CN3CCc4c([nH]c5ccccc45)C3CC21 (stereo not drawn)
1

----------
Experiment: chemical genetic growth profiling, strain panel (AID 1159580);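 also: tested at 20 µM; growth read once vehicle control cultures reached saturation at 30 °C; 1 = growth at the plate median or of vehicle wells; lower values mean less growth of the strain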
Settings: S. cerevisiae deletion strains, growth OD, locus YDR069C, strain doa4, hits give low values
About 2,000 (36%) of roughly 5,500 compounds were called active. Inconclusive results (about 18%) are left out. The list shows a part of the results.
Catalogue of normalized growth readings, one per entry.
Give the value as a plain number.

Worked examples follow.
>  <molecule>
COc1ccc2c(c1)[C@@]1(C)CCC(=O)C[C@H]1CC2

>  <normalized growth>
0.963

$$$$
>  <molecule>
O=C(O)c1ccccc1OP(=O)(O)O

>  <normalized growth>
1.02

$$$$

# query: normalized growth of entry CCC1(C)CC(=O)NC1=O (configuration not stated)
0.991

Lookup `CNc1ccccc1C(=O)N1CCc2c([nH]c3ccccc23)C1=O`
0.966

Please answer likewise for `COc1cccc([C@]2(O)CCCC[C@H]2CN(C)C)c1`
0.958

----------
Test: chemical genetic growth profiling, strain panel (AID 1159580);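 also: tested at 20 µM; growth read once vehicle control cultures reached saturation at 30 °C; 1 = growth at the plate median or of vehicle wells; lower values mean less growth of the strain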
Conditions: S. cerevisiae deletion strains, growth OD, locus YOL012C, strain htz1
Among all 5,500 compounds or so, about 2,000 (36%) were called active. Another 18% or so got no clear call; they are omitted. The list shows a part of the results.
property label: normalized growth
# print the numeric value only

>  <compound>
Oc1c(Cl)c(Cl)c(Cl)c(Cl)c1Cl

>  <property label>
normalized growth

>  <recorded value>
0.527

$$$$
>  <compound>
CC1(C)C2CC[C@]3(C)C(C(=O)C=C4[C@@H]5C[C@@](C)(C(=O)O)CC[C@]5(C)CC[C@]43C)[C@@]2(C)CC[C@@H]1O (stereo partly specified)

>  <property label>
normalized growth

>  <recorded value>
1.55

$$$$
>  <compound>
CCCCCC(=O)O[C@]1(C(C)=O)CCC2C3CCC4=CC(=O)CC[C@]4(C)C3CC[C@@]21C (stereo partly specified)

>  <property label>
normalized growth

>  <recorded value>
1.02

$$$$

Which normalized growth is reported for this compound? CC(=O)O[C@]1(C(C)=O)CCC2C3C=C(C)C4=CC(=O)CCC4(C)C3CCC21C (stereo partly specified)
0.402

Same read-out for CC(=O)[C@H]1CCC2C3C[C@H](C)C4=CC(=O)CC[C@]4(C)C3[C@@H](O)C[C@@]21C (stereo partly specified) ?
1.85

Also check `O=c1ccc2ccccc2o1`
1.37

Queued: `Cc1ccc(O)cc1`
1.54

Another compound: CN1C2CC3C[C@H]1C(O3)C2O (stereo partly specified)
1.37

Try this compound next: CC(=O)O[C@]1(C(C)=O)CCC2C3C[C@H](C)C4=CC(=O)CC[C@]4(C)C3CC[C@@]21C (stereo partly specified)
1.07

Quick one: `COc1ccc2cc1Oc1ccc(cc1)C[C@H]1c3cc(c(OC)cc3CCN1C)Oc1c(OC)c(OC)cc3c1[C@H](C2)N(C)CC3`
0.904

Also, CC1(C)C2CC[C@]3(C)C(C(=O)C=C4[C@@H]5C[C@@](C)(C(=O)O)CC[C@]5(C)CC[C@]43C)[C@@]2(C)CC[C@@H]1OC(=O)CCC(=O)O (stereo partly specified) please.
1.07

Subsequent entry: `Nc1nc2[nH]c(=O)c(=O)[nH]c2c(=O)[nH]1`
1.04

Try the compound CC(=O)O[C@H]1C(=O)[C@@]2(C)C([C@H](OC(=O)c3ccccc3)[C@]3(O)C[C@H](OC(=O)[C@H](O)[C@@H](NC(=O)c4ccccc4)c4ccccc4)C(C)=C1C3(C)C)[C@]1(OC(C)=O)CO[C@@H]1C[C@@H]2O (stereo partly specified)
2.06

What do we get for `O=c1ccc2cc(O)c(O)cc2o1` ?
0.571

// repeat for `CN=C(NC#N)NCCSCc1nc[nH]c1C` and report
0.875

How about this compound: `OCCN(CCO)c1nc(N2CCCCC2)c2nc(N(CCO)CCO)nc(N3CCCCC3)c2n1`
2.13

Item: CCCCCC(C)N (stereo unspecified)
1.25

Entry to check: CN1CCc2cc3c(cc2C1O)OCO3 (stereo unspecified)
1.7

What about `C/C=C(/C(=C/C)c1ccc(O)cc1)c1ccc(O)cc1` ?
1.01

What do you have for `NC(N)=Nc1nc(CSCCC(N)=NS(N)(=O)=O)cs1` ?
0.851

Also, CC(=O)O[C@@](C)(CCC=C(C)C)C1CC=C(C)CC1 (stereo partly specified) please.
0.898

----------
Experiment: chemical genetic growth profiling, strain panel (AID 1159580);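 also: tested at 20 µM; growth read once vehicle control cultures reached saturation at 30 °C; 1 = growth at the plate median or of vehicle wells; lower values mean less growth of the strain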
Conditions: S. cerevisiae deletion strains, growth OD, locus YNR052C, strain pop2
Hit rate of the full screen: of about 5,500 compounds, about 2,000 (36%) were called active. Not shown: some 18% with an inconclusive outcome. Rule as the data show it: active = normalized growth mostly below about 0.91 (no sharp cut-off); inconclusive = no clear call, values can overlap the other calls; inactive = mostly above about 0.92. This is one part of the list.
Permitted responses: 1.0 = active, 0.0 = inactive

Example cases with answers are listed next.
>  <compound>
COc1c2c(c(CC=C(C)C)c3oc(=O)c(-c4ccc(O)cc4)c(O)c13)OC(C)(C)C=C2

>  <assigned class>
1.0

$$$$
>  <compound>
Cc1c(N(C)C)c(=O)n(-c2ccccc2)n1C

>  <assigned class>
0.0

$$$$
>  <compound>
O=c1ccc2ccccc2o1

>  <assigned class>
0.0

$$$$
>  <compound>
C=CCc1ccc2c(c1)OCO2

>  <assigned class>
0.0

$$$$

Can you look up the reported call for CO[C@H]1C[C@H](O[C@H]2[C@H](C)[C@@H](OC3O[C@H](C)C[C@H](N(C)C)[C@H]3O)[C@@H](C)C[C@]3(CO3)C(=O)[C@H](C)[C@@H](O)[C@@H](C)[C@@H](C)OC(=O)[C@@H]2C)O[C@@H](C)[C@@H]1O (some centres not stated) for me?
0.0

Would you mind doing `COc1c(CC=C(C)C)c2c(c3oc(=O)c(-c4ccc(OC(C)=O)cc4)c(OC(C)=O)c13)C=CC(C)(C)O2` as well?
0.0

Would you kindly repeat that for `C[N+](C)(C)CC(=O)[O-]` ?
0.0

Also `O=[N+]([O-])O[C@H]1CO[C@H]2[C@@H]1OC[C@H]2O[N+](=O)[O-]` , if possible.
0.0

Can you handle `Cn1cc[nH]c1=S` next?
0.0

What would you report for `O=C(O)c1cc(=O)c2cc(Cl)ccc2[nH]1` ?
0.0

Please give the result for `COc1ccc(C(=O)c2ccccc2)c(O)c1` too.
0.0

// next record `OC(CCN1CCCCC1)(c1ccccc1)c1ccccc1`
0.0

Proceed to `CCCCOc1ccc(OCCCN2CCOCC2)cc1`
1.0

Also, CCC(C(N)=O)c1ccccc1 (configuration not stated) please.
0.0

And what about the compound `CC(=C(CCOP(=O)(O)O)SC(=O)c1ccccc1)N(C=O)Cc1cnc(C)nc1N` ?
0.0

Also COC1C(O)C(O)C(O)[C@@H](O)C1O (some centres not stated) , if possible.
0.0

Ok, now `OCCN(CCO)c1nc(N2CCCCC2)c2nc(N(CCO)CCO)nc(N3CCCCC3)c2n1`
0.0

Also CC(C(=O)O)c1ccc2c(c1)[nH]c1ccc(Cl)cc12 (configuration not stated) ?
0.0

Next: `O=C(/C=C/C=C/c1ccc2c(c1)OCO2)N1CCCCC1`
0.0

Try NC[C@@H]1O[C@H](O[C@@H]2[C@@H](CO)OC(O[C@@H]3[C@@H](O)[C@H](N)C[C@H](N)[C@H]3OC3O[C@H](CN)[C@@H](O)[C@H](O)[C@H]3N)[C@@H]2O)[C@H](N)[C@@H](O)[C@@H]1O (some centres not stated) next.
0.0

Proceed to `CC(C)[N+](C)(CCOC(=O)C1c2ccccc2Oc2ccccc21)C(C)C`
0.0

Try this compound next: COc1cc2c(cc1OC)C(=O)C(CC1CCN(Cc3ccccc3)CC1)C2 (configuration not stated)
1.0
